biological target: Neu5Gc(a2-3)Gal(b1-3)[Fuc(a1-4)]GlcNAc; assay: glycan array binding signal (z-score within array); higher = stronger binding; conditions: glycan notation: IUPAC condensed, linker removed
Shown is part of a subset that was picked to be rich in the strongest signals.
Field: glycan array binding signal (z-score). Provide a value for each of the binders that follow.
One number for each entry.

# annotated cases, reported glycan array binding signal (z-score) shown
RegIIIbeta (Mus musculus), P35230 (protein) MLPPTACSVMSWMLLSCLMLLSQVQGEDSLKNIPSARISCPKGSQAYGSYCYALFQIPQTWFDAELACQKRPGGHLVSVLNSAEASFLSSMVKRTGNSYQYTWIGLHDPTLGAEPNGGGWEWSNNDVMNYFNWERNPSTALDRAFCGSLSRASGFLKWRDMTCEVKLPYVCKFTG    0.106
EUL D1A (Oryza sativa) (protein) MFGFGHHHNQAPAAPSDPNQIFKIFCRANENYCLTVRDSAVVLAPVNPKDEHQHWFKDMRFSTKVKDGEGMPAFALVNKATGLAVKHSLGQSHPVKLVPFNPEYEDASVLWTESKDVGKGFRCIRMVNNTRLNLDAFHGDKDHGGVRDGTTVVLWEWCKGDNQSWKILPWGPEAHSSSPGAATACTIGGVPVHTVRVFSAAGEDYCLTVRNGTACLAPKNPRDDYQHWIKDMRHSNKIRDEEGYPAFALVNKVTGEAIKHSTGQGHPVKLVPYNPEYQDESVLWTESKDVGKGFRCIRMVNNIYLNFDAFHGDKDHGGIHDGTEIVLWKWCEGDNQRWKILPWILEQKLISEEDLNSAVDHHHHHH    0.008

Now look at this entry.
Value of glycan array binding signal (z-score) reported for the binder Protectin (Homo sapiens), P13987 (protein) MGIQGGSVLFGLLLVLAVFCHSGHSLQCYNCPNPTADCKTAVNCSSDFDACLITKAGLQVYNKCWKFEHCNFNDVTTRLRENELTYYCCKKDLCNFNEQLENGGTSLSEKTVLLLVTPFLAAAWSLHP is 0.087
